Target: HLA-C*03:03
Assay: IEDB peptide-MHC binding, purified MHC/direct/fluorescence; filed as Kd, often an IC50 or EC50 that approximates it; bounds were set here for any values at or beyond the usual limits of such assays
Details: source organism: Clostridium novyi NT
measureName: Kd

Inquiry: Recall the recorded Kd for ASMDNTSPM with HLA-C*03:03 and state it.
Reply text: ≤ 1 nM

###

Target: HLA-B*07:02
Test: IEDB peptide-MHC binding, purified MHC/direct/fluorescence; filed as Kd, often an IC50 or EC50 that approximates it; bounds were set here for any values at or beyond the usual limits of such assays
Conditions: source organism: Mycobacterium tuberculosis
pKd: −log10 of the molar value.
measureName: pKd

Inquiry: What does the record list as pKd for AVFPRYHPR ?
Reply text: ≤ 4.70

###

Target: HLA-A*26:01
Test: IEDB peptide-MHC binding, purified MHC/direct/fluorescence; filed as Kd, often an IC50 or EC50 that approximates it; bounds were set here for any values at or beyond the usual limits of such assays
Conditions: source organism: Rickettsia typhi
pKd: −log10 of the molar value.
measureName: pKd

Inquiry: Reported pKd for APILVVSGI : what is it?
Reply text: ≤ 4.70

###

Molecular target: HLA-A*03:01
Assay: IEDB peptide-MHC binding, purified MHC/direct/fluorescence; filed as Kd, often an IC50 or EC50 that approximates it; bounds were set here for any values at or beyond the usual limits of such assays
Conditions: source organism: Mycobacterium leprae
measureName: pKd
The meaning of pKd here: minus log10 of the concentration in molar units.

Inquiry: Quick check: pKd of RVIPPSLLR ?
Reply text: 5.76

###

Biological target: HLA-B*15:09
Assay: IEDB peptide-MHC binding, purified MHC/direct/fluorescence; filed as Kd, often an IC50 or EC50 that approximates it; bounds were set here for any values at or beyond the usual limits of such assays
Details: source organism: Mammarenavirus lassaense
measureName: pKd
# reply with the number alone; pKd is -log10 of concentration in mol/L

Inquiry: Requested field: pKd. Item: NHYLCLNCL
Reply text: 6.37

###

Target: HLA-A*03:01
Test: IEDB peptide-MHC binding, purified MHC/competitive/radioactivity; filed as Kd, often an IC50 or EC50 that approximates it; bounds were set here for any values at or beyond the usual limits of such assays
Settings: source organism: Mammarenavirus lassaense
measureName: Kd (nM)
Only the number, expressed in nM, is required.

Inquiry: Item HSYAGDAAEH has what recorded Kd?
Reply text: 1480

###

Target: HLA-B*83:01
Assay: IEDB peptide-MHC binding, purified MHC/competitive/fluorescence; filed as Kd, often an IC50 or EC50 that approximates it; bounds were set here for any values at or beyond the usual limits of such assays
Settings: source organism: Clostridium novyi NT
measureName: Kd (nM)
Numbers only; they are read as nM.

Inquiry: Could you share which Kd value was measured for ASMDNTSPM ?
Reply text: 147

###

Biological target: HLA-A*26:01
Test: IEDB peptide-MHC binding, purified MHC/competitive/radioactivity; filed as Kd, often an IC50 or EC50 that approximates it; bounds were set here for any values at or beyond the usual limits of such assays
Settings: source organism: Dengue virus 1 Brazil/97-11/1997
measureName: Kd (nM)
Write the answer as a number in nM, unit excluded.

Inquiry: Using the record for DTIETLMLLA , report its Kd.
Reply text: 228
